Hi there, I'd appreciate the recorded abundance fitness for every entry that follows.
B1: SAM and SH3 domain-containing protein 1, residues 630 to 700; numbered along this chain, O94885 (parent)
chain: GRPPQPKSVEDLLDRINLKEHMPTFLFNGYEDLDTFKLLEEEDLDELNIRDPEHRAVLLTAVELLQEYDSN

variants of: B1; assay: abundance fitness (aPCA) (normalised: wild type 0, dead -1); higher = more abundant; growth selection in yeast, the domain comes from the species named; details: Homo sapiens
Answers are plain numbers.

Consider the worked cases shown below.
• GRPPQPKSVEDLLDRINLKEHMPTFLFNGYEDLDTFKLLEEEDLDELNIRDPEHRAVLLTVVELLQEYDSN [A61V] = -0.644
• GRPPQPKSVEDLLDRINLKEHMPTFLFNNYEDLDTFKLLEEEDLDELNIRDPEHRAVLLTAVELLQEYDSN [G29N] = -0.762

Here are 8 variants. What values of abundance fitness were reported for them?
1. GRPPQPKSVEDLLDRINLKEHMPTFLFNGYEDLDTFKLLEEEDLDELNIRDPERRAVLLTAVELLQEYDSN [H54R]
2. GRPPQPKSVEDLLDRINLKEHMPTFLFNGYEDLDTFKLLEEEDLDELNFRDPEHRAVLLTAVELLQEYDSN [I49F]
3. GRPPQPKSVEDLFDRINLKEHMPTFLFNGYEDLDTFKLLEEEDLDELNIRDPEHRAVLLTAVELLQEYDSN [L13F]
4. GRPPQPKSVEDLLDRILLKEHMPTFLFNGYEDLDTFKLLEEEDLDELNIRDPEHRAVLLTAVELLQEYDSN [N17L]
5. GRPPQPKSVEDLLDRINLKEHMPTFLFNGYEDLDTFKLLEEEDLDELNIRDPEHRAVLLTAVELLQEYDSV [N71V]
6. GRPNQPKSVEDLLDRINLKEHMPTFLFNGYEDLDTFKLLEEEDLDELNIRDPEHRAVLLTAVELLQEYDSN [P4N]
7. GRPPQPKSVEDLLDRINLKEHMPTFLFNGYEDLDTMKLLEEEDLDELNIRDPEHRAVLLTAVELLQEYDSN [F36M]
8. GRPPQPKSVEDLLDRINLKEHMPTFLFNGYEDLDTFKLLEEEDLDELNIRDPEWRAVLLTAVELLQEYDSN [H54W]

[-0.823, -0.851, -0.576, -0.891, 0.035, 0.09, -0.354, -0.96]

Give abundance fitness for each of the items listed below.
1. GRPPQPKSVEDLLDRINRKEHMPTFLFNGYEDLDTFKLLEEEDLDELNIRDPEHRAVLLTAVELLQEYDSN [L18R]
2. GRPPQPKSVEDLLDRINLKEHMPTFLFNGYEDLDTFKLLEEEHLDELNIRDPEHRAVLLTAVELLQEYDSN [D43H]
3. GRPPQPKSVEDLLDRINLKEHMPTFLFNGYEDLDTFKLLPEEDLDELNIRDPEHRAVLLTAVELLQEYDSN [E40P]
4. GRPPQPKSVEDLWDRINLKEHMPTFLFNGYEDLDTFKLLEEEDLDELNIRDPEHRAVLLTAVELLQEYDSN [L13W]
5. GRPPQPNSVEDLLDRINLKEHMPTFLFNGYEDLDTFKLLEEEDLDELNIRDPEHRAVLLTAVELLQEYDSN [K7N]
6. GRPPQPKNVEDLLDRINLKEHMPTFLFNGYEDLDTFKLLEEEDLDELNIRDPEHRAVLLTAVELLQEYDSN [S8N]
7. GRPPQPKSVEDLLDRINLKEHMPTFLFNGYEDLDTFKLLEEEDLDELNIRDPEHRAVQLTAVELLQEYDSN [L58Q]

-1.02
-0.201
-0.914
-0.99
-0.142
-0.305
-0.468

Would you mind listing abundance fitness for each of the following variants?
1. GRPPQPKSVEDLLDRINLKEKMPTFLFNGYEDLDTFKLLEEEDLDELNIRDPEHRAVLLTAVELLQEYDSN [H21K]
2. GRPPQPKSVEDLHDRINLKEHMPTFLFNGYEDLDTFKLLEEEDLDELNIRDPEHRAVLLTAVELLQEYDSN [L13H]
3. GRPPQPKSVEDLLDRINLLEHMPTFLFNGYEDLDTFKLLEEEDLDELNIRDPEHRAVLLTAVELLQEYDSN [K19L]
4. GRPPQPKSVEDLLDRINLKEHMPTFLFNGYEDLDTFKLLEEEDLDELNIRDPEHRAVLLTAVELLQEYCSN [D69C]
5. GRPPQPKSVEDLLDRINLKEHMPTFLFNGYEDLDTFKLLEEEDLDELNIRDPEHRAVLLTAVESLQEYDSN [L64S]
6. GRPPQPKSVEDLLDRINLKEHMPTFLFNGYEDLDWFKLLEEEDLDELNIRDPEHRAVLLTAVELLQEYDSN [T35W]
7. GRPPQPKSVEDLLDRINLKEHMPTFLFNGYEDLDTFKLLEEKDLDELNIRDPEHRAVLLTAVELLQEYDSN [E42K]

[-0.712, -0.801, 0.127, -0.479, 0.31, -0.973, 0.283]

Batch request: abundance fitness for each of the following variants.
1. GRPPQPKSVEDLLDRINLKEHMPTFLFNGYETLDTFKLLEEEDLDELNIRDPEHRAVLLTAVELLQEYDSN [D32T]
2. GRPPQPKSVEDLLDRINLKEHMPTVLFNGYEDLDTFKLLEEEDLDELNIRDPEHRAVLLTAVELLQEYDSN [F25V]
3. GRPPQPKSVEDLLDRQNLKEHMPTFLFNGYEDLDTFKLLEEEDLDELNIRDPEHRAVLLTAVELLQEYDSN [I16Q]

1. 0.172
2. -0.758
3. -0.682
